tested on: OVCAR-5 ovarian; test: NCI tumour cell line growth inhibition, 48 h
Exercise: state measured TGI for each of the compounds provided.

Indicate its recorded TGI; the compound in question is CC1=Nc2ccccc2NC(c2ccoc2)C1 (stereo not given)
> 100 µM

Indicate its recorded TGI; the compound in question is CC(=O)Nc1ccccc1-c1nc2ccccc2nc1C
> 100 µM

Indicate its recorded TGI; the compound in question is O=C(NC(=S)Nc1ccc2c(c1)Sc1ccccc1O2)c1ccc([N+](=O)[O-])cc1
> 100 µM

Indicate its recorded TGI; the compound in question is Cn1cc(C2=C(c3ccccc3[N+](=O)[O-])C(=O)NC2=O)c2ccccc21
> 25 µM

Indicate its recorded TGI; the compound in question is N#CC(N)c1ccc(OCCCCCCCCCCOc2ccc(C(N)C#N)cc2)cc1 (stereo not given)
> 100 µM
